# Tested on: P388 leukemia ip, CD2F1 mice, survival T/C
# method-summary: NCI In Vivo Anticancer Drug Screen. Data for tumor model P388 Leukemia (intraperitoneal) in CD2F1 (CDF1) mice
# stated-conditions: endpoint: median survival time; dose: 50.0 mg/kg/injection; schedule: Q01DX005 (ip); vehicle: Klucel (hydroxypropylcellulose) (HPC); higher = longer survival
Toxic doses and inconclusive results are not listed.
Hi there, I'd appreciate the recorded T/C for every entry that follows.

T/C for CSC(=O)NC(=O)NC(=O)c1ccc([N+](=O)[O-])cc1 is 91 % of control

response.value for C=C1CC(c2ccc(S(=O)(=O)N3CCOCC3)cc2)OC1=O (stereo unspecified) (field: T/C) = 120 % of control

Entry CCOc1cc2c(cc1C(C)c1ccc(OCc3ccccc3)c(OC)c1)OCO2 (stereo unspecified) — recorded T/C = 97 % of control

// field: T/C; key: COc1ccc(CCNS(=O)(=O)c2c(C)c(C)c(C)c(C)c2C)cc1OC ; value = 93 % of control

Query CC(C)CC1CC(=O)C(=O)C(CC(C)C)C1 (stereo unspecified) yields T/C of 95 % of control

Lookup result for CCOC(=O)c1ccnc2ccc3ccccc3c12 ; measured T/C: 105 % of control

* * *

# Tested on: P388 leukemia ip, CD2F1 mice, survival T/C
# method-summary: NCI In Vivo Anticancer Drug Screen. Data for tumor model P388 Leukemia (intraperitoneal) in CD2F1 (CDF1) mice
# stated-conditions: endpoint: median survival time; dose: 200.0 mg/kg/injection; schedule: Q01DX009 (ip); vehicle: saline with Tween-80; higher = longer survival
Toxic doses and inconclusive results are not listed.
Provide the recorded T/C for the entries that follow.

Measured T/C (P388 leukemia ip, CD2F1 mice, survival T/C), entry COc1cc2c(cc1OC)C13CCCC4(OCCO4)C1=CC2(C)O3 (stereo not drawn) : 93 % of control

# lookup: CC(=O)c1c[nH]cc1CO on P388 leukemia ip, CD2F1 mice, survival T/C, T/C = 98 % of control

Field T/C (system: P388 leukemia ip, CD2F1 mice, survival T/C) for entry CN1CCCC(C(O)c2ccccc2)S1(=O)=O (stereo not drawn) = 101 % of control

Item CCc1ccc(NCc2ccc(CNc3ccc(CC)cc3)cc2)cc1 ; assay system P388 leukemia ip, CD2F1 mice, survival T/C; T/C reported as 94 % of control

// T/C (P388 leukemia ip, CD2F1 mice, survival T/C) for CCOC(=O)C(Cc1ccc(O)cc1)NS(=O)(=O)c1ccc(C)cc1 (stereo not drawn) = 108 % of control

Case N#CC(C#N)=CNc1ccccc1 , P388 leukemia ip, CD2F1 mice, survival T/C, T/C recorded as 104 % of control

I looked up CCCCCCC(=O)/C=C/c1ccc(O)cc1 and its T/C for P388 leukemia ip, CD2F1 mice, survival T/C was 105 % of control

Entry O=C(O)CCCC(=O)c1ccc2ccccc2c1 ; assay system P388 leukemia ip, CD2F1 mice, survival T/C; T/C recorded at 99 % of control

Bench note, P388 leukemia ip, CD2F1 mice, survival T/C: entry OCCN1CN(c2ccccc2)C(=S)N(c2ccccc2)C1 , its T/C = 93 % of control

Here COc1cc(Br)cc(OC)c1N was tested on P388 leukemia ip, CD2F1 mice, survival T/C, and its T/C came to 105 % of control

// assay P388 leukemia ip, CD2F1 mice, survival T/C, entry O=C(CC(c1ccccc1)c1ccccc1)c1ccccc1 , T/C value = 88 % of control

Considering ClCC1CSC(c2ccc3c(c2)OCO3)O1 (stereo not drawn) , its T/C with P388 leukemia ip, CD2F1 mice, survival T/C was recorded as 98 % of control

Short answer on P388 leukemia ip, CD2F1 mice, survival T/C for O=[N+]([O-])c1cccc(C(O)(C(F)(F)F)C(F)(F)F)c1 , T/C: 98 % of control

Param item: CCCCCCCCCC(C)(O)C#CC(C)(O)CCCCCCCCC (stereo not drawn) ; param system: P388 leukemia ip, CD2F1 mice, survival T/C; output T/C: 95 % of control

Form field T/C for item CCN(CC)Cc1c2c(O)c3c(O)c(C)c4c(c3c1O)C(=O)C(C)(O/C=C/C(OC)C(C)C(OC(C)=O)C(C)C(O)C(C)C(O)C(C)/C=C/C=C(\C)C(=O)N2)O4 (stereo not drawn) on P388 leukemia ip, CD2F1 mice, survival T/C: 97 % of control

Entry O=S1(=O)c2ccccc2C(O)(c2ccccc2)c2cc3ccccc3n21 (stereo not drawn) , tested on P388 leukemia ip, CD2F1 mice, survival T/C, has a reported T/C of 92 % of control

Observed T/C, P388 leukemia ip, CD2F1 mice, survival T/C, S=C(SCc1ccccc1)N1CCN(C(=S)SCc2ccccc2)CC1 : 91 % of control

Item: O=C(/C=C/c1ccc(OCc2ccccc2)cc1)c1c(F)cccc1F | System: P388 leukemia ip, CD2F1 mice, survival T/C | T/C: 100 % of control

The molecule O=C(CON1C(=O)CCC1=O)c1ccccc1 , when measured on P388 leukemia ip, CD2F1 mice, survival T/C, yielded T/C of 112 % of control

Test item Nc1ncnc2ccc(Cl)cc12 ; P388 leukemia ip, CD2F1 mice, survival T/C; reported T/C was 107 % of control

The observed T/C for COC1/C=C/OC2(C)Oc3c(C)c(O)c4c(c3C2=O)C(=O)C=C(NC(=O)/C(C)=C\C=C\C(C)C(OC=O)C(C)C(O)C(C)C(OC(C)=O)C1C)C4=O (stereo not drawn) when tested with P388 leukemia ip, CD2F1 mice, survival T/C stands at 91 % of control

# lookup: Cc1ccc(N2C(=O)c3ccccc3NC2(C)CCl)cc1 (stereo not drawn) on P388 leukemia ip, CD2F1 mice, survival T/C, T/C = 112 % of control

The recorded T/C with P388 leukemia ip, CD2F1 mice, survival T/C for O=S(=O)(SC(S(=O)(=O)C12CC3CC(CC(C3)C1)C2)S(=O)(=O)C12CC3CC(CC(C3)C1)C2)C12CC3CC(CC(C3)C1)C2 (stereo not drawn) was 95 % of control
